assay.system: COX-1 (Ovis aries, UniProt P05979)
Construct: purchased Cayman Chemical Company, Ann Arbor, MI, USA
Sequence (P05979 25-600): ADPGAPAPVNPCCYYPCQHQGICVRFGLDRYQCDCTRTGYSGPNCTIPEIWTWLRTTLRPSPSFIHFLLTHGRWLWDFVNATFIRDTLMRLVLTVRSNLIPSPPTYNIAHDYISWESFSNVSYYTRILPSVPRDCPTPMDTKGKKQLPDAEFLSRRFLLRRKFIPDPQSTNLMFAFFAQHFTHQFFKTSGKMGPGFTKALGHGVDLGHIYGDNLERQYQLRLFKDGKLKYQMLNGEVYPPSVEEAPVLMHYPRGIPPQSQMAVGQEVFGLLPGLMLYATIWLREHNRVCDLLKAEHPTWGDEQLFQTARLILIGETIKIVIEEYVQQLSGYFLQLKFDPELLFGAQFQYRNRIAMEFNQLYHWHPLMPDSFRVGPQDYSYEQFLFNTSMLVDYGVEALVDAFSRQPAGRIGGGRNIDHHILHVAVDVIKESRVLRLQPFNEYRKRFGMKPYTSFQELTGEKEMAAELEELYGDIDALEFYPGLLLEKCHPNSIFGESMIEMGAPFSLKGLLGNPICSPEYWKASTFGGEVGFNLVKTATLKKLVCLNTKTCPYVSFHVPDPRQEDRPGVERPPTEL
assay.method.text: COX colorimetric inhibitor screening assay, COX-1
Type: biochemical
condition.notes: after 2 min of incubation, n = 5; read-out: IC50 [µM] ± SD COX-1
assay.metric: IC50 (µM)

{"columns": ["compound", "value.units", "quantitative.result"],
 "data": [
  ["Cc1ccc(C=NNC(=O)Cn2nc(CNC(=O)c3c(C)cc(C)nc3S)oc2=S)cc1 [Compound 7]", "µM", 148],
  ["Cc1cc(C)c(C(=O)NCc2nn(CC(=O)NN=Cc3ccc(F)cc3)c(=S)o2)c(S)n1 [Compound 6]", "µM", 145],
  ["Cc1cc(C)c(C(=O)NCc2nn(CC(=O)NN=Cc3ccc(C(F)(F)F)cc3)c(=S)o2)c(S)n1 [Compound 11]", "µM", 86.2],
  ["Cc1cc(C)c(C(=O)NCc2nn(CC(=O)NN=Cc3cccc(Cl)c3)c(=S)o2)c(S)n1 [Compound 12]", "µM", 66.8]
]}

====

Tested on: V79 (fibroblasts from Chinese hamster lung)
assay.method.text: MTT assay, V79
Format: cell-based
condition.notes: Cricetulus griseus, Fibroblast, 48 h incubation, read-out: IC50 [µM] ± SD V79
Excerpt: The MTT (3-[4,5-dimethylthiazol-2-yl]-2,5-diphenyl tetrazolium bromide) assay was used to determine the cytotoxicity of tested compounds towards different cell lines: normal human dermal fibroblasts (NHDF), kidney epithelial cells (VERO), fibroblasts from Chinese hamster lung (V79) and four human cancer cells: A549 (pulmonary basal cell alveolar adenocarcinoma), MCF-7 (breast adenocarcinoma), LoVo (colon adenocarcinoma), and its drug resistant subline LoVo/Dx. […]
Response field label takes rule met when IC50 is strictly below 70 µM and rule not met in all other cases.

{"columns": ["compound", "assigned.category"],
 "data": [
  ["Cc1cc(C)c(C(=O)NCc2nn(CC(=O)NN=Cc3ccc(C#N)cc3)c(=S)o2)c(S)n1", "rule not met"],
  ["Cc1cc(C)c(C(=O)NCc2nn(CC(=O)NN=Cc3cccc(Cl)c3)c(=S)o2)c(S)n1", "rule met"],
  ["CN1C(C(=O)Nc2ccccn2)=C(O)c2ccccc2S1(=O)=O [Piroxicam, piroxicam, reference compound]", "rule not met"],
  ["Cc1cc(C)c(C(=O)NCc2nn(CC(=O)NN=Cc3ccccc3)c(=S)o2)c(S)n1", "rule not met"],
  ["Cc1cnc(NC(=O)C2=C(O)c3ccccc3S(=O)(=O)N2C)s1 [Meloxicam, meloxicam, reference compound]", "rule not met"],
  ["Cc1cc(C)c(C(=O)NCc2nn(CC(=O)NN=Cc3ccccc3Br)c(=S)o2)c(S)n1", "rule met"],
  ["Cc1cc(C)c(C(=O)NCc2nn(CC(=O)NN=Cc3ccc(F)cc3)c(=S)o2)c(S)n1", "rule not met"],
  ["Cc1ccc(C=NNC(=O)Cn2nc(CNC(=O)c3c(C)cc(C)nc3S)oc2=S)cc1", "rule met"],
  ["Cc1cc(C)c(C(=O)NCc2nn(CC(=O)NN=Cc3ccc(Cl)cc3)c(=S)o2)c(S)n1", "rule met"],
  ["Cc1cc(C)c(C(=O)NCc2nn(CC(=O)NN=Cc3ccc(C(F)(F)F)cc3)c(=S)o2)c(S)n1", "rule met"]
]}

====

System: VERO (kidney epithelial cells)
assay.method.text: MTT assay, VERO
Format: cell-based
condition.notes: Chlorocebus sabaeus, Vero, 48 h incubation, read-out: IC50 [µM] ± SD VERO

{"columns": ["mol", "IC50 [µM]"],
 "data": [
  ["Cc1cc(C)c(C(=O)NCc2nn(CC(=O)NN=Cc3ccc(Cl)cc3)c(=S)o2)c(S)n1", 130],
  ["Cc1ccc(C=NNC(=O)Cn2nc(CNC(=O)c3c(C)cc(C)nc3S)oc2=S)cc1", 68.3],
  ["Cc1cc(C)c(C(=O)NCc2nn(CC(=O)NN=Cc3ccc(C#N)cc3)c(=S)o2)c(S)n1", 89.8],
  ["Cc1cc(C)c(C(=O)NCc2nn(CC(=O)NN)c(=S)o2)c(S)n1", 77.4],
  ["Cc1cc(C)c(C(=O)NCc2nn(CC(=O)NN=Cc3ccccc3)c(=S)o2)c(S)n1", 100],
  ["Cc1cc(C)c(C(=O)NCc2nn(CC(=O)NN=Cc3ccc(F)cc3)c(=S)o2)c(S)n1", 59.6],
  ["Cc1cc(C)c(C(=O)NCc2nn(CC(=O)NN=Cc3ccccc3Br)c(=S)o2)c(S)n1", 55.7],
  ["Cc1cc(C)c(C(=O)NCc2nn(CC(=O)NN=Cc3cccc(Cl)c3)c(=S)o2)c(S)n1", 79.2],
  ["CSc1ccc(/C=N\\NC(=O)Cn2nc(CNC(=O)c3c(C)cc(C)nc3S)oc2=S)cc1", 50.4],
  ["Cc1cc(C)c(C(=O)NCc2nn(CC(=O)NN=Cc3ccc(C(F)(F)F)cc3)c(=S)o2)c(S)n1", 104]
]}
